# Measured Target: H1047R PIK3CA enzyme (Homo sapiens, UniProt P42336, H1047R)
# Sequence (P42336 whole entry H1047R): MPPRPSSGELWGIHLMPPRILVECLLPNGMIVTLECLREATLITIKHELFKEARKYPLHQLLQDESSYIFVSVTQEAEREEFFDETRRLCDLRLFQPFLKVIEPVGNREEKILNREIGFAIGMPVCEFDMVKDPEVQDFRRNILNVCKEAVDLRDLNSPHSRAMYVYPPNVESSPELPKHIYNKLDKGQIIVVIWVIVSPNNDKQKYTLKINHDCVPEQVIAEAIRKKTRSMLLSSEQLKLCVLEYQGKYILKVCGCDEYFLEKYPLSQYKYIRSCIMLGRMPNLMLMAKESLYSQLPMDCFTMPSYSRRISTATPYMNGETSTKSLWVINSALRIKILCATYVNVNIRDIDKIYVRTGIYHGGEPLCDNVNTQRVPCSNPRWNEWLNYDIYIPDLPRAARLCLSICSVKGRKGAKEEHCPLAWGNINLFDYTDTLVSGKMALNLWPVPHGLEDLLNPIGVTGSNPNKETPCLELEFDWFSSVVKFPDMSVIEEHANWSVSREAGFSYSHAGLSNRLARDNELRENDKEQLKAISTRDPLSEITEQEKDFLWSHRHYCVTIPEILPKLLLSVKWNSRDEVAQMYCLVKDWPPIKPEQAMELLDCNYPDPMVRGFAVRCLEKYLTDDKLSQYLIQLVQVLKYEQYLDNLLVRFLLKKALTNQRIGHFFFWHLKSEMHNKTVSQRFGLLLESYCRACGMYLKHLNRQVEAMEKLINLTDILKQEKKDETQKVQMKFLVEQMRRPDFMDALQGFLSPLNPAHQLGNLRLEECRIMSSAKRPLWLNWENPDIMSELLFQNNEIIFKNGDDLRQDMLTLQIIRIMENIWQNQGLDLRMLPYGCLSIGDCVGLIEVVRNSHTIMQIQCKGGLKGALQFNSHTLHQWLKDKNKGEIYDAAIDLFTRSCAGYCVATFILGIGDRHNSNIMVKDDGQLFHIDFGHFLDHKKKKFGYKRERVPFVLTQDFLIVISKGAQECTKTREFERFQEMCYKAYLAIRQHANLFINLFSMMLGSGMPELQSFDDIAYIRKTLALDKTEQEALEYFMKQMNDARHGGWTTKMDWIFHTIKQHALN
# Sequence (P27986 whole entry partner): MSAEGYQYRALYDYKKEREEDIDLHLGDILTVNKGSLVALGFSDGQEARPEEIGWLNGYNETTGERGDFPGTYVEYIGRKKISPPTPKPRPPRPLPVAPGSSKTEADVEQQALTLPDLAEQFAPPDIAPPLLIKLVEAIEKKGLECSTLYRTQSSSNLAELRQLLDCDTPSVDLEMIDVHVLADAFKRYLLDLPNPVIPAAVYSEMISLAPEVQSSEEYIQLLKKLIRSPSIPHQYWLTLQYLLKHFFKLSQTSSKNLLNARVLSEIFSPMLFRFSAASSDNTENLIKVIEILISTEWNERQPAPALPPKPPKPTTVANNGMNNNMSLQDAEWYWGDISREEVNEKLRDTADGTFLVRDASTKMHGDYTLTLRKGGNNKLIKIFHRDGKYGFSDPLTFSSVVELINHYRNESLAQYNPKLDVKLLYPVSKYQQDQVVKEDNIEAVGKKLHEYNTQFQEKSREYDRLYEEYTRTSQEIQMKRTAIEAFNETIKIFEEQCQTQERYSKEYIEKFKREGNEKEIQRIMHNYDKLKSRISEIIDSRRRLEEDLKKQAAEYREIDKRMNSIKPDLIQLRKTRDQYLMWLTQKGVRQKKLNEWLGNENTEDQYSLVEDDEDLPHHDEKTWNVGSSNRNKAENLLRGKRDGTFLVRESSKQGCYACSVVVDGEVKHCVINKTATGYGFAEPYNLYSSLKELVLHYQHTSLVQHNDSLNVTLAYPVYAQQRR
# Experiment: ADP-Glo Biochemical PIK3CA Kinase Assay
Can you tell me IC50 for the items I'm about to list?

I'd like to know its IC50. The molecule in question is O=C1NC(c2cc(F)ccc2Cl)c2c(NC(=O)N3CC4CCC4(C(F)(F)F)C3)cc(Br)cc21 (stereo not shown) [Compound I-1754]
1 to 10 µM

And the next one, N#CC1(COc2cc(NC(=O)N3C[C@@H](O)c4cc(F)ccc43)c3c(c2)C(=O)N[C@H]3c2cc(F)ccc2Cl)CC1 (single isomer, unassigned) [Compound I-2551] ?
1 to 10 µM

And the next one, Cc1ccccc1C1NC(=O)c2c(N3CCOCC3)ncc(NC(=O)c3cc(F)cc(C(F)(F)F)c3)c21 (stereo not shown) [Compound I-253] ?
1 to 10 µM

And the next one, CC(C)(O)c1cc(NC(=O)c2nsc3ccccc23)c2c(c1)C(=O)N[C@@H]2c1cc(F)ccc1Cl [Compound I-191] ?
0.5 to 1 µM

And the next one, Cc1ccccc1C1NC(=O)c2cccc(NC(=O)c3cc(F)cc4c(C(=O)C(F)(F)F)c[nH]c34)c21 (stereo not shown) [Compound I-408] ?
10 to 100 µM

And the next one, N#Cc1cc2nccn2cc1-c1cc(NC(=O)c2cc(F)cc(C(F)(F)F)c2)c2c(c1)C(=O)NC2c1cc(F)ccc1Cl (stereo not shown) [Compound I-1437] ?
≤ 0.1 µM

And the next one, NC1(C(F)(F)F)CC(C(=O)Nc2cc(Br)cc3c2C(c2cc(F)ccc2Cl)NC3=O)C1 (stereo not shown) [Compound I-1632] ?
10 to 100 µM

And the next one, N#Cc1cn(Cc2cc(NC(=O)c3cc(F)cc(C(F)(F)F)c3)c3c(c2)C(=O)NC3c2cc(F)ccc2Cl)cn1 (stereo not shown) [Compound I-1719] ?
≤ 0.1 µM

And the next one, O=C1CCC[C@@H]([C@@H]2NC(=O)c3cccc(NC(=O)c4cc(F)cc(C(F)(F)F)c4)c32)C1 (single isomer, unassigned) [Compound I-2255] ?
10 to 100 µM

And the next one, O=C(Nc1cc(-c2ccn3ccnc3c2)cc2c1[C@H](c1cc(F)ccc1Cl)NC2=O)c1cc(F)cc(C(F)(F)F)c1 [Compound I-1450] ?
≤ 0.1 µM

And the next one, O=C(Nc1cc(OCC2(CO)COC2)cc2c1C(c1cc(F)ccc1Cl)NC2=O)c1cc(F)cc(C(F)(F)F)c1 (stereo not shown) [Compound I-1357] ?
≤ 0.1 µM

And the next one, Cc1ncc(-c2cc(NC(=O)c3cc(F)cc(C(F)(F)F)c3)c3c(c2)C(=O)NC3c2cc(F)ccc2Cl)cn1 (stereo not shown) [Compound I-732] ?
≤ 0.1 µM

And the next one, N#Cc1cnc2c(F)cc(-c3cc(NC(=O)c4cc(F)cc(C(F)(F)F)c4)c4c(c3)C(=O)NC4c3cc(F)ccc3Cl)cn12 (stereo not shown) [Compound I-1797] ?
≤ 0.1 µM

---

# Measured Target: H1047R PIK3CA enzyme (Homo sapiens, UniProt P42336, H1047R)
# Experiment: ADP-Glo Biochemical PIK3CA Kinase Assay
# Procedure: Compounds to be assayed were plated in 16 doses of 1:2 serial dilutions (20 nL volume each well) on a 1536-well plate, and the plate warmed to room temperature. […] To the well was added 1 μL of 200 μM ATP and 20 μM of diC8-PIP2 in Substrate Assay Buffer (50 mM HEPES pH7.4, 50 mM NaCl, 5 mM DTT and 0.03% CHAPS) to start the reaction, and the plate was shaken for 10 seconds, then spun briefly at 1500 rpm, and then incubated for 60 minutes at room temperature. […]
Can you tell me IC50 for the items I'm about to list?

Query IC50 on H1047R PIK3CA enzyme (Homo sapiens, UniProt P42336, H1047R) for `O=C(Nc1cc(-c2cn(C(F)F)cn2)cc2c1[C@H](c1cc(F)ccc1Cl)NC2=O)c1cc(F)cc(C(F)(F)F)c1`
≤ 100 nM

And the next one, O=C(Nc1cc(Br)cc2c1C(c1cc(F)ccc1Cl)NC2=O)c1ccc2nncn2c1 (centres unmarked) ?
10000 to 100000 nM

And the next one, O=C(Nc1cc(Br)cc2c1C(c1cc(F)ccc1Cl)NC2=O)c1cc(F)cc(COC(F)(F)F)c1 (centres unmarked) ?
1000 to 10000 nM

And the next one, O=C(Nc1c(F)ccc2c1C(c1cc(F)ccc1C(F)F)NC2=O)c1cc(F)cc(C(F)(F)F)c1 (centres unmarked) ?
500 to 1000 nM

And the next one, O=C(Nc1cc(-c2cnc(OCCO)nc2)cc2c1C(c1cc(F)ccc1Cl)NC2=O)c1cc(F)cc(C(F)(F)F)c1 (centres unmarked) ?
≤ 100 nM

And the next one, `N#Cc1ncc(-c2cc(NC(=O)c3cc(F)cc(C(F)(F)F)c3)c3c(c2)C(=O)N[C@H]3c2cc(F)ccc2Cl)cn1` ?
100 to 500 nM

And the next one, O=C(Nc1cc(-c2cnn(-c3ncc(F)cn3)c2)cc2c1C(c1cc(F)ccc1Cl)NC2=O)c1cc(F)cc(C(F)(F)F)c1 (centres unmarked) ?
≤ 100 nM

And the next one, O=C(Nc1ccnc2c1C(c1cccc(F)c1F)NC2=O)c1cc(F)cc(Cl)c1 (centres unmarked) ?
1000 to 10000 nM

And the next one, N#CC1(COc2cc(NC(=O)N3C[C@H](O)c4cc(F)ccc43)c3c(c2)C(=O)N[C@H]3c2cc(F)ccc2Cl)CC1 (single isomer, unassigned) ?
100 to 500 nM

And the next one, C[C@H](O)c1cc(-c2ccc3ncnn3c2)cc2c1[C@H](c1cc(F)ccc1Cl)NC2=O (single isomer, unassigned) ?
10000 to 100000 nM

And the next one, O=C(Nc1cc(-c2ccncc2)nc2c1C(c1cc(F)ccc1Cl)NC2=O)c1cc(F)cc(Cl)c1 (centres unmarked) ?
100 to 500 nM

And the next one, O=C1NC(c2ccc3ccccc3c2)c2c(NC(=O)c3nsc4ccccc34)cccc21 (centres unmarked) ?
10000 to 100000 nM

And the next one, O=C1N[C@H](c2cc(F)ccc2Cl)c2c(NC(=O)N3C[C@@H](O)c4cc(F)ccc43)cc(-n3cccn3)cc21 (single isomer, unassigned) ?
500 to 1000 nM

And the next one, C[S+]([O-])c1cc(-c2ccc3ncnn3c2)cc2c1C(c1cc(F)ccc1Cl)NC2=O (centres unmarked) ?
10000 to 100000 nM

---

Can you tell me pIC50 for the items I'm about to list?
# Measured Target: H1047R PIK3CA enzyme (Homo sapiens, UniProt P42336, H1047R)
# Experiment: ADP-Glo Biochemical PIK3CA Kinase Assay
pIC50: −log10 of the molar value.

I'd like to know its pIC50. The molecule in question is O=C(Nc1cccc2c1C(c1cc(F)c(F)cc1C(F)F)NC2=O)c1cc(F)cc(C(F)(F)F)c1 (stereo not shown) [Compound I-330]
≥ 7.00

And the next one, NC1(C(=O)Nc2cc(-c3ccc4ncnn4c3)cc3c2C(c2cc(F)ccc2Cl)NC3=O)CCCC1 (stereo not shown) [Compound I-1812] ?
4.00 to 5.00

And the next one, N#Cc1cc(NC(=O)N2C[C@](O)(C(F)(F)F)c3ccccc32)c2c(c1)C(=O)N[C@H]2c1cc(F)ccc1Cl (single isomer, unassigned) [Compound I-2565] ?
5.00 to 6.00

And the next one, CC(C)(COS(C)(=O)=O)c1cc(NC(=O)c2cc(F)cc(C(F)(F)F)c2)c2c(c1)C(=O)NC2c1cc(F)ccc1Cl (stereo not shown) [Compound I-656] ?
≥ 7.00

And the next one, N#Cc1cc(Oc2cc(NC(=O)c3cc(F)cc(C(F)(F)F)c3)c3c(c2)C(=O)NC3c2cc(F)ccc2Cl)ccn1 (stereo not shown) [Compound I-1130] ?
≥ 7.00

And the next one, O=C(Nc1cc(-c2cn[nH]c2)nc2c1[C@H](c1cc(F)ccc1Cl)NC2=O)c1cc(F)cc(Cl)c1 [Compound I-196] ?
≥ 7.00

And the next one, CN1CCC(C(=O)Nc2cc(-c3ccc4ncnn4c3)cc3c2C(c2cc(F)ccc2Cl)NC3=O)CC1 (stereo not shown) [Compound I-1758] ?
4.00 to 5.00

---

Can you tell me IC50 for the items I'm about to list?
# Measured Target: H1047R PIK3CA enzyme (Homo sapiens, UniProt P42336, H1047R)
# Experiment: ADP-Glo Biochemical PIK3CA Kinase Assay

I'd like to know its IC50. The compound in question is O=C1N[C@@H](c2cc(F)ccc2Cl)c2c(NC(=O)c3nsc4ccccc34)cc(-c3ccc4ncnn4c3)cc21 (stereo in doubt) [Compound I-1829]
≤ 100 nM

And the next one, O=C1NC(c2cc(F)ccc2Cl)c2c1cc(-c1ccc3ncnn3c1)cc2C1=CCNCC1 (stereo not drawn) [Compound I-1997] ?
10000 to 100000 nM

And the next one, N#CCc1cc(NC(=O)N2C[C@@](O)(C(F)F)c3cc(F)ccc32)c2c(c1)C(=O)N[C@@H]2c1cc(F)ccc1Cl (single isomer, unassigned) [Compound I-2600] ?
500 to 1000 nM
